Measured on: Aminopeptidase N (Sus scrofa)
Sequence (P15145 whole entry): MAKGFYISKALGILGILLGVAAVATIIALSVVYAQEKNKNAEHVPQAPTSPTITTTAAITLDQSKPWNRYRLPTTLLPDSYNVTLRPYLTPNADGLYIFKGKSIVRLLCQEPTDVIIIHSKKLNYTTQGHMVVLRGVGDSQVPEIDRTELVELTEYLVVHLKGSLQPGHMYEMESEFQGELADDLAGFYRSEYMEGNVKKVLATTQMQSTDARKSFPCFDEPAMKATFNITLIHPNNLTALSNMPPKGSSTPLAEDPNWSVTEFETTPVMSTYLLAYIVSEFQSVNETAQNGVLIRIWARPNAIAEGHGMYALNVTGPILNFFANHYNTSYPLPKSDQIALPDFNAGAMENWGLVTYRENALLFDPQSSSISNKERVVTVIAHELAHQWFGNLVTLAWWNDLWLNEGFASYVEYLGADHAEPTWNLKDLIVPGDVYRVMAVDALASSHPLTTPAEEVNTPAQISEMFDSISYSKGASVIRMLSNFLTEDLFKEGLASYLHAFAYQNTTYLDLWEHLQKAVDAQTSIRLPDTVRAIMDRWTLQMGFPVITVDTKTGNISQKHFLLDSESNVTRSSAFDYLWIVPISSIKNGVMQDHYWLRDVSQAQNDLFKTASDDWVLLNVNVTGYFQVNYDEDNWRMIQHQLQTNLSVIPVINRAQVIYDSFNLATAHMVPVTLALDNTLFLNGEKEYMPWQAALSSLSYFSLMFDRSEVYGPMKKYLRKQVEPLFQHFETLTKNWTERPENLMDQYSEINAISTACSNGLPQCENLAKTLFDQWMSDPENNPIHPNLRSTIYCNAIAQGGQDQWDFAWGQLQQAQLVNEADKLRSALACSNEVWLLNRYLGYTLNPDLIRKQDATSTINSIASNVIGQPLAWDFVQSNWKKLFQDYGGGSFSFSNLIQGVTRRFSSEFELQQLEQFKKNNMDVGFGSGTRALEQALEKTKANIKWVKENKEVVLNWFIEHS
Assay details: Inhibition of pig kidney microsomal APN assessed as hydrolysis of L-Leu-p-nitroanilide after 1 hr by spectrophotometry
Readout: pIC50
Just so you know, pIC50 here is -log10 of the concentration in molar units; reply with that number alone.

Ask: Quick check: pIC50 of N[C@H](Cc1ccccc1)C(=O)N[C@@H](CO)C(=O)NC[C@H](N)[C@@H](O)c1ccc([N+](=O)[O-])cc1 ?
Result: 4.67

Ask: Quick check: pIC50 of CC(C)C[C@H](N)C(=O)NC[C@H](N)[C@@H](O)c1ccc(N)cc1 ?
Result: 4.20

Ask: Quick check: pIC50 of N[C@H](Cc1ccccc1)C(=O)NC[C@H](N)[C@@H](O)c1ccc([N+](=O)[O-])cc1 ?
Result: 4.37

Ask: Quick check: pIC50 of NC[C@H](O)C(=O)N[C@H](Cc1ccccc1)C(=O)NC[C@H](N)[C@@H](O)c1ccc([N+](=O)[O-])cc1 ?
Result: 5.19

Ask: Quick check: pIC50 of NC[C@H](N)[C@@H](O)c1ccc([N+](=O)[O-])cc1 ?
Result: 3.05

Ask: Quick check: pIC50 of CC(C)C[C@H](N)C(=O)NC[C@H](N)[C@@H](O)c1ccc(I)cc1 ?
Result: 4.51

Ask: Quick check: pIC50 of Nc1ccc([C@H](O)[C@@H](N)CNC(=O)[C@H](N)Cc2ccccc2)cc1 ?
Result: 3.85

Ask: Quick check: pIC50 of Nc1ccc([C@H](O)[C@@H](N)CNC(=O)[C@@H](Cc2ccccc2)NC(=O)[C@H](N)Cc2ccccc2)cc1 ?
Result: 4.51

Ask: Quick check: pIC50 of N[C@@H](CNC(=O)[C@@H]1Cc2ccc(O)cc2CN1)[C@@H](O)c1ccc([N+](=O)[O-])cc1 ?
Result: 3.36

Ask: Quick check: pIC50 of CC(C)C[C@H](N)C(=O)N[C@H](Cc1ccccc1)C(=O)NC[C@H](N)[C@@H](O)c1ccc(I)cc1 ?
Result: 4.95

Ask: Quick check: pIC50 of NCCCC[C@H](N)C(=O)NC[C@H](N)[C@@H](O)c1ccc(N)cc1 ?
Result: 3.87

Ask: Quick check: pIC50 of N[C@@H](Cc1ccc(O)cc1)C(=O)NC[C@H](N)[C@@H](O)c1ccc(I)cc1 ?
Result: 4.67

====

Measured on: Aminopeptidase N (Homo sapiens)
Sequence (P15144 whole entry): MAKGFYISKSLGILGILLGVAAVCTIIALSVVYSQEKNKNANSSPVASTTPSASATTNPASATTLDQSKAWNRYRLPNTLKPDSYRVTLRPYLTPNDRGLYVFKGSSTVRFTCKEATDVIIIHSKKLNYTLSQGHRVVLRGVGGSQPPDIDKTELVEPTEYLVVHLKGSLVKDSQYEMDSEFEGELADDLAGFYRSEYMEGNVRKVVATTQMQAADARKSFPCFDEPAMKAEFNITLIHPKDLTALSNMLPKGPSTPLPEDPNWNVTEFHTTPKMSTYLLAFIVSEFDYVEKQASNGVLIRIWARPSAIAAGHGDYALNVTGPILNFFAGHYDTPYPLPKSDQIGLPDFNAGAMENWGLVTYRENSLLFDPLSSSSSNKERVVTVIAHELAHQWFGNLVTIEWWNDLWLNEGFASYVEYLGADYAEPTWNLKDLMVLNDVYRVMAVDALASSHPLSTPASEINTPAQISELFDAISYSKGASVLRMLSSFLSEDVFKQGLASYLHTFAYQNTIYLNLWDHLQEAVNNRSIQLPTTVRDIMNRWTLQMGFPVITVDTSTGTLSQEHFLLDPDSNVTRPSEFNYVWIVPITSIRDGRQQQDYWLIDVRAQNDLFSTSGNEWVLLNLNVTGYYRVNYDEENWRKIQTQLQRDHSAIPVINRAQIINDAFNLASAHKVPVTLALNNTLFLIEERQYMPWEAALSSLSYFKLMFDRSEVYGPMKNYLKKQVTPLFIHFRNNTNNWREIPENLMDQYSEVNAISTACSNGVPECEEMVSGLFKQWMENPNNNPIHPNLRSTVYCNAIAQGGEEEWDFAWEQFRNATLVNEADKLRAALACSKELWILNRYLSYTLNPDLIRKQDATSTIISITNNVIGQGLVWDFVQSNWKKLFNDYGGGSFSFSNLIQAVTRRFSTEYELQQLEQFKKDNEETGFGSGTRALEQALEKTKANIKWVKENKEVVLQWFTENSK
Assay details: Inhibition of APN in human HL60 cells assessed as hydrolysis of L-Leu-p-nitroanilide by spectrophotometry
Readout: IC50 (µM)
The reply should contain only the number, in µM.

Ask: Observed IC50 on Aminopeptidase N (Homo sapiens) for NC[C@H](O)C(=O)N[C@H](Cc1ccccc1)C(=O)NC[C@H](N)[C@@H](O)c1ccc([N+](=O)[O-])cc1 , please.
Result: 66.3

Ask: Observed IC50 on Aminopeptidase N (Homo sapiens) for N[C@@H](CS)C(=O)NC[C@H](N)[C@@H](O)c1ccc([N+](=O)[O-])cc1 , please.
Result: 248

Ask: Observed IC50 on Aminopeptidase N (Homo sapiens) for CC(C)C[C@H](N)C(=O)N[C@H](Cc1ccccc1)C(=O)NC[C@H](N)[C@@H](O)c1ccc(N)cc1 , please.
Result: 39.4

Ask: Observed IC50 on Aminopeptidase N (Homo sapiens) for N[C@H](Cc1ccccc1)C(=O)NC[C@H](O)C(=O)NC[C@H](N)[C@@H](O)c1ccc([N+](=O)[O-])cc1 , please.
Result: 616

Ask: Observed IC50 on Aminopeptidase N (Homo sapiens) for CC(C)C[C@H](N)C(=O)N[C@H](Cc1ccccc1)C(=O)NC[C@H](N)[C@@H](O)c1ccc([N+](=O)[O-])cc1 , please.
Result: 290
